Listing: EC50 of selected compounds
- systemTested: human C-terminal DNMT3A (623-908a.a.) (Homo sapiens, UniProt Q9Y6K1)
- Construct: The human C-terminal DNMT3A (623-908a.a.); made in house
- Sequence (Q9Y6K1 627-912 limits assumed): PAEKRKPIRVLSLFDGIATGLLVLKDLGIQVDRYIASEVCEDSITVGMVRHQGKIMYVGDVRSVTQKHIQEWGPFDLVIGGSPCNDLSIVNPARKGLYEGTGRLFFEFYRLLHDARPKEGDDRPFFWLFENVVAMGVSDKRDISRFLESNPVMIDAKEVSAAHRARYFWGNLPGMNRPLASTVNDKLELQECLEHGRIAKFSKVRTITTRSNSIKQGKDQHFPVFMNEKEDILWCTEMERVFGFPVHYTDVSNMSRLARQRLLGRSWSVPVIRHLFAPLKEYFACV
- measurementDescription: hDNMT3A assay (restriction-based fluorescence assay)
- Format: biochemical
- conditionSummary: concentration at which 50% of efficacy of inhibition is observed; read-out: EC50 (μM), hDNMT 3A inhibition
measuredMetric: EC50 (µM)

>  <compound>
CCN(CC)CCCNC(=O)N1CCc2cc(OC)c3c4c2[C@@H]1Cc1ccc(cc1)Oc1cc(ccc1OC)C[C@H]1c2cc(c(cc2CCN1C)O3)O4 [Product 49]

>  <systemTested>
human C-terminal DNMT3A (623-908a.a.) (Homo sapiens, UniProt Q9Y6K1)

>  <units>
µM

>  <recordedResult>
6.1

$$$$
>  <compound>
CCN(CC)CCCNC(=O)N1CCc2cc3c4cc2[C@@H]1Cc1ccc(OC)c(c1)Oc1ccc(cc1)C[C@H]1c2c(cc(OC)c(c2O4)O3)CCN1C [Product 50]

>  <systemTested>
human C-terminal DNMT3A (623-908a.a.) (Homo sapiens, UniProt Q9Y6K1)

>  <units>
µM

>  <recordedResult>
2.06

$$$$
>  <compound>
COc1ccc2cc1Oc1ccc(cc1)C[C@@H]1NCCc3cc(OC)c4c(c31)Oc1cc3c(cc1O4)CCN(C)[C@H]3C2 [Trilobine (1), trilobine]

>  <systemTested>
human C-terminal DNMT3A (623-908a.a.) (Homo sapiens, UniProt Q9Y6K1)

>  <units>
µM

>  <recordedResult>
3.8

$$$$
>  <compound>
CCN(CC)CCCNC(=O)N1CCc2cc3c4cc2[C@@H]1Cc1ccc(OC)c(c1)Oc1ccc(cc1)C[C@H]1c2c(cc(OC)c(c2O4)O3)CCN1C(=O)NCCCN(CC)CC [Product 48]

>  <systemTested>
human C-terminal DNMT3A (623-908a.a.) (Homo sapiens, UniProt Q9Y6K1)

>  <units>
µM

>  <recordedResult>
1.93

$$$$
>  <compound>
CNC(=S)N1CCc2cc(OC)c3c4c2[C@@H]1Cc1ccc(cc1)Oc1cc(ccc1OC)C[C@H]1c2cc(c(cc2CCN1C)O3)O4 [Product 14]

>  <systemTested>
human C-terminal DNMT3A (623-908a.a.) (Homo sapiens, UniProt Q9Y6K1)

>  <units>
µM

>  <recordedResult>
1.91

$$$$
>  <compound>
CCN(CC)CCCNC(=S)N1CCc2cc3c4cc2[C@@H]1Cc1ccc(OC)c(c1)Oc1ccc(cc1)C[C@H]1c2c(cc(OC)c(c2O4)O3)CCN1C [Product 42]

>  <systemTested>
human C-terminal DNMT3A (623-908a.a.) (Homo sapiens, UniProt Q9Y6K1)

>  <units>
µM

>  <recordedResult>
0.64

$$$$
>  <compound>
CNC(=O)N1CCc2cc(OC)c3c4c2[C@@H]1Cc1ccc(cc1)Oc1cc(ccc1OC)C[C@H]1c2cc(c(cc2CCN1C)O3)O4 [Product 44]

>  <systemTested>
human C-terminal DNMT3A (623-908a.a.) (Homo sapiens, UniProt Q9Y6K1)

>  <units>
µM

>  <recordedResult>
3.96

$$$$

Data origin: patent US10544156B2
